B1: EHEE_rd2_0601 (parent)
chain: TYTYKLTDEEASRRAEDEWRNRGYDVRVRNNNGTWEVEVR

# Variants of: B1
# run description: folding stability dG (cDNA display proteolysis); higher = more stable
# condition parameters: PBS, room temperature
What folding stability dG was measured for each of the following?
Report the figure in kcal/mol without appending any unit label.

[ask] Returns the measured folding stability dG for the input variant. Input: "K5A"
[reply] 1.38

[ask] I'd like to know its folding stability dG. The variant in question is "R13W"
[reply] 0.841

[ask] # lookup: folding stability dG of "D8F"
[reply] 0.427

[ask] Which folding stability dG value is on record for "E38I" ?
[reply] 1.77

[ask] Could you tell me which folding stability dG is on file for "K5W" ?
[reply] 1.83

[ask] Requested field: folding stability dG. Item: "L6K"
[reply] -0.09

[ask] Can you look up the measured folding stability dG of "R20G" for me?
[reply] 0.028

[ask] Recorded folding stability dG of "T3H" , please.
[reply] 0.873

[ask] // folding stability dG lookup, key: "T3S"
[reply] 0.898

[ask] If you can, please state the reported folding stability dG value of "N31P" .
[reply] -0.345

[ask] Which folding stability dG is listed for "L6A" ?
[reply] 1.4

[ask] I'd like to know its folding stability dG. The variant in question is "K5D"
[reply] 0.851

[ask] Data request, read-out folding stability dG, for "D17K"
[reply] 2.02

[ask] Look at this variant and give its reported folding stability dG. "R40P"
[reply] 0.016

[ask] What does the record list as folding stability dG for "A15W" ?
[reply] 1.36

[ask] Give the measured folding stability dG of "S12Y" .
[reply] 0.95

[ask] Any idea what folding stability dG was measured for "A15E" ?
[reply] 0.824

[ask] Record request: folding stability dG value, item "E38M"
[reply] 1.33

[ask] Would you mind telling me what folding stability dG value was observed for "N31E" ?
[reply] 1.12

[ask] What does the data say about its folding stability dG? Entry: "L6V"
[reply] 2.08

[ask] Quick one: folding stability dG for "A11Y" ?
[reply] 0.624

[ask] Data request, read-out folding stability dG, for "R22L"
[reply] 1.46

[ask] Endpoint output: folding stability dG of "R22I" . Value?
[reply] 0.421

[ask] What does the record list as folding stability dG for "Y2A" ?
[reply] 0.941

[ask] I'd like to know its folding stability dG. The variant in question is "N32M"
[reply] 1.08

[ask] Return reported folding stability dG; argument: "V28D"
[reply] -0.612

[ask] Item "G33C" has what recorded folding stability dG?
[reply] 0.74

[ask] # input variant: "Y2L" ; wanted: its folding stability dG
[reply] 1.41

[ask] Data request, read-out folding stability dG, for "E16I"
[reply] 1.82

[ask] Fill in the blank: the reported folding stability dG of "S12M" is ____.
[reply] 1.95

[ask] Can you look up the measured folding stability dG of "A15K" for me?
[reply] 1.37

[ask] Reported folding stability dG for "E18G" : what is it?
[reply] 0.757

[ask] Item under review: "T3I" . Reported folding stability dG?
[reply] 1.92

[ask] # folding stability dG lookup, item "L6N"
[reply] 0.622

[ask] Given the entry "R14D" , report its measured folding stability dG.
[reply] 0.704

[ask] I would be grateful if you could share the reported folding stability dG for "Y4A" .
[reply] -0.411

[ask] Field request: folding stability dG | item: "A11S"
[reply] 1.58

[ask] Could you tell me which folding stability dG is on file for "V37L" ?
[reply] 1.46

[ask] Quick one: folding stability dG of "W19M" ?
[reply] 0.446

[ask] # get_value(readout='folding stability dG', item= "E9T" )
[reply] 0.198

[ask] # folding stability dG lookup, item "E16F"
[reply] 1.73

[ask] Could you share which folding stability dG value was measured for "E16N" ?
[reply] 0.335

[ask] So what does the record say about folding stability dG for "T3F" ?
[reply] 1.37

[ask] For the variant "V37I" , what folding stability dG is on record?
[reply] 1.75

[ask] Any idea what folding stability dG was measured for "N30K" ?
[reply] 1.34

[ask] Requested field: folding stability dG. Item: "Y24K"
[reply] -0.577

[ask] Please look up its folding stability dG: "T7P"
[reply] 2.05

[ask] Look up folding stability dG for this variant: "D8L"
[reply] 0.261

[ask] Query (variant): "R27W" ; field requested: folding stability dG
[reply] 1.27

[ask] Tell me the measured folding stability dG of "V37W" , please.
[reply] -0.973

[ask] What does the record list as folding stability dG for "K5G" ?
[reply] 0.688

[ask] Entry "Y24T" : reported folding stability dG = ?
[reply] -0.625

[ask] Consider the variant shown here: "N21G" What is its recorded folding stability dG?
[reply] 1.42

[ask] Need folding stability dG of "T3V" , thanks.
[reply] 1.82

[ask] Requested field: folding stability dG. Item: "E36I"
[reply] 1.93

[ask] Return reported folding stability dG; argument: "A11I"
[reply] 0.447

[ask] I would be grateful if you could share the reported folding stability dG for "R40K" .
[reply] 1.29

[ask] folding stability dG for "N21H" ?
[reply] 1.24

[ask] What value of folding stability dG has been reported for the following variant? "V37Y"
[reply] -0.753

[ask] Which value of folding stability dG has been reported for "E10T" in the records?
[reply] 1.23

[ask] Name the reported folding stability dG value associated with the variant "K5N"
[reply] 1.38

[ask] Given the entry "T3Y" , report its measured folding stability dG.
[reply] 1.36

[ask] Recorded folding stability dG for "V39W" , please?
[reply] -0.503

[ask] Which folding stability dG value belongs to "E18Q" ?
[reply] 1.36

[ask] Bench note: what folding stability dG did "R20H" show?
[reply] 0.444

[ask] Data request, read-out folding stability dG, for "L6G"
[reply] 0.912

[ask] What folding stability dG value was documented for this variant, "T3A" ?
[reply] 0.556

[ask] Fill in: folding stability dG of "L6Q" is ___
[reply] 0.88

[ask] GET /values?readout=folding stability dG&item= "D17E"
[reply] 1.99

[ask] Give its folding stability dG value. Item: "T3Q"
[reply] 0.604

[ask] Quick check: folding stability dG of "L6Y" ?
[reply] 3.41

[ask] If you can, please state the reported folding stability dG value of "E18T" .
[reply] 1.35

[ask] Return reported folding stability dG; argument: "E16K"
[reply] 0.777

[ask] Give its folding stability dG value. Item: "E38D"
[reply] 0.701

[ask] Any idea what its folding stability dG is? The variant is "L6W"
[reply] 1.14

[ask] Could you share which folding stability dG value was measured for "A11N" ?
[reply] 0.709

[ask] Reported folding stability dG, variant "Y4C" : ____
[reply] 1.16

[ask] I'd like to know its folding stability dG. The variant in question is "A15T"
[reply] 1.43

[ask] Entry under review: "D8Q" . Reported folding stability dG?
[reply] 0.142

[ask] // lookup folding stability dG for "D17W"
[reply] 1.92

[ask] For the variant "S12Q" , what folding stability dG is on record?
[reply] 0.072

[ask] For the variant "N32K" , what folding stability dG is on record?
[reply] 0.989

[ask] Fill in: folding stability dG of "E9M" is ___
[reply] 0.936

[ask] If you can, please state the reported folding stability dG value of "D25G" .
[reply] 0.602

[ask] State the recorded folding stability dG for this entry: "Y4M"
[reply] 1.14

[ask] Query (variant): "E10F" ; field requested: folding stability dG
[reply] 1.2

[ask] Please give the measured folding stability dG for this variant: "N32T"
[reply] 0.049

[ask] Entry "E16R" has what folding stability dG?
[reply] 1.19

[ask] Need folding stability dG of "L6M" , thanks.
[reply] 1.97

[ask] What value of folding stability dG has been recorded for this entry: "R27I"
[reply] 2.09

[ask] Give the measured folding stability dG of "E18K" .
[reply] 1.43
